compounds and their reported Ki
target-or-system: Sodium-dependent serotonin transporter (Rattus norvegicus)
Sequence (P31652 whole entry): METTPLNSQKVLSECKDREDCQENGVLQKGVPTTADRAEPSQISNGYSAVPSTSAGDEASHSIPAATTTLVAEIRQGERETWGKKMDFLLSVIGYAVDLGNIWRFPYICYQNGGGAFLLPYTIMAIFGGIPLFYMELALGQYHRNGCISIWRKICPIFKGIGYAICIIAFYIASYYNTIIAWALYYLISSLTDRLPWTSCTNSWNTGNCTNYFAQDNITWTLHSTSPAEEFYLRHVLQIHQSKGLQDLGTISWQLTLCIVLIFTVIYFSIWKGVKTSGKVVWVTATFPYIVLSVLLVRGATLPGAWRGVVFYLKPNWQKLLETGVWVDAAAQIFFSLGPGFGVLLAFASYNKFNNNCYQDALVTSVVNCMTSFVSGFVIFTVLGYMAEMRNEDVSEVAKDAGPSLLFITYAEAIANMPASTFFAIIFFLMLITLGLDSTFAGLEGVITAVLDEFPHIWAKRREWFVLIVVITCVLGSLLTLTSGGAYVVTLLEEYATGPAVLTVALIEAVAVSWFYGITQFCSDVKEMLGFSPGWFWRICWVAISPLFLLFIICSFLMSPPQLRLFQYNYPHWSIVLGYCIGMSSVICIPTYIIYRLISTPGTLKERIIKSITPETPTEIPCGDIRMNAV
test-method-notes: Ability to inhibit high affinity uptake of [3H]-5-HT at Serotonin transporter (SERT) using rat midbrain
Format: tissue-based

record-smiles	Ki
COC(=O)/C=C/[C@H]1CN(C)CC[C@@H]1c1ccc(Cl)cc1	501 nM
CC(=O)OC[C@H]1CN(C)CC[C@@H]1c1ccc(Cl)cc1	901 nM
CCNC(=O)OC[C@H]1CN(C)CC[C@@H]1c1ccc(Cl)cc1	854 nM
CN1CC[C@H](c2ccc(Cl)cc2)[C@@H](CCC(=O)O)C1	4540 nM

In the following, a different compound is considered.
[Q] For the record "CN1CC[C@H](c2ccc(Cl)cc2)[C@@H](COC(=O)NC23CC4CC(CC(C4)C2)C3)C1" , what value of Ki is listed for Sodium-dependent serotonin transporter (Rattus norvegicus)?
[A] 37 nM

Hello, the source for this data is ChEMBL document CHEMBL1149196, in case you need it.
